- Assayed System: T1, polyhistidine-tagged human PD-1 (hPD1-His, 98AFK) (human, UniProt Q15116 25-167, limits assumed)
- T1 construct: Lot 98AFK; also called human PD1-His; Human PD-1-His; not shown: polyhistidine tag
- T1 sequence (Q15116 25-167 limits assumed): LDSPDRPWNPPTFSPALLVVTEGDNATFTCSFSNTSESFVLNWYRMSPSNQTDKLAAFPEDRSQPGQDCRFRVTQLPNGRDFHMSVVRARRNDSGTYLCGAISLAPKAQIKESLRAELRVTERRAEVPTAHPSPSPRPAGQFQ
- Assay Text: SPR capture format; reference Mouse 08A
KD (REF) / KD overview
Write the answer as a number in ratio, unit excluded.

Recorded results for 5 binders are shown here.
INSERT INTO results (binder, measured) VALUES
  ('Humanized 08A IgG4 Fab 098 G56A (antibody, V domains shown, IgG4 S228P / kappa; also called 90AVZ) VH: EVQLVQSGAEVKKPGASVKVSCKASGYTFTSYYLYWVRQAPGQGLEWIGGVNPSNAGTNFSEKFKSRVTLTVDTSISTAYMELSRLRSDDTAVYYCTRRLSHYDGGFDYWGQGTTVTVSS VL: DIVMTQTPLSLSVTPGQPASISCRASKSVSTSGFSYLHWYLQKPGQPPQLLIFLASNLESGVPDRFSGSGSGTDFTLKISRVEAEDVGVYYCQHSWELPLTFGQGTKLEIKR', 3),
  ('Mouse 08A N59E (antibody, mouse IgG1, kappa, V domains shown, also called 39AFL; Clone 1.08 N59E) VH: QVQLQQPGAELVKPGASVKLSCKASGYTFTSYYLYWMKQRPGQGLEWIGGVNPSNGGTEFSEKFKSKATLTVDKSSSTAYMQLSSLTSEDSAVYYCTRRDSNYDGGFDYWGQGTTLTVSS VL: DIVLTQSPTSLAVSLGQRATISCRASKSVSTSGFSYLHWYQQKPGQPPKLLIFLASNLESGVPARFSGSGSGTDFTLNIHPVEEEDAATYYCQHSWELPLTFGAGTKLELKR', 0.03),
  ('Mouse 08A N59A (antibody, mouse IgG1, kappa, V domains shown, also called 80AFH; Clone 1.08 N59A) VH: QVQLQQPGAELVKPGASVKLSCKASGYTFTSYYLYWMKQRPGQGLEWIGGVNPSNGGTAFSEKFKSKATLTVDKSSSTAYMQLSSLTSEDSAVYYCTRRDSNYDGGFDYWGQGTTLTVSS VL: DIVLTQSPTSLAVSLGQRATISCRASKSVSTSGFSYLHWYQQKPGQPPKLLIFLASNLESGVPARFSGSGSGTDFTLNIHPVEEEDAATYYCQHSWELPLTFGAGTKLELKR', 0.4),
  ('Humanized 08A IgG4 S61N N55E (antibody, V domains shown, IgG4 S228P / kappa; also called 50AQK; 08A/HuPD1A-11 N55E S228P IgG4 / Kappa) VH: EVQLVQSGAEVKKPGASVKVSCKASGYTFTSYYLYWVRQAPGQGLEWIGGVNPSEGGTNFNEKFKSRVTLTVDTSISTAYMELSRLRSDDTAVYYCTRRDSNYDGGFDYWGQGTTVTVSS VL: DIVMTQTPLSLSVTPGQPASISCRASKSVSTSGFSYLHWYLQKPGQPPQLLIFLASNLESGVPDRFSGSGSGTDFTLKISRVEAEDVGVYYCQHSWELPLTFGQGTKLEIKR', 0.8),
  ('Mouse 08A N59Q (antibody, mouse IgG1, kappa, V domains shown, also called 38AFL; Clone 1.08 N59Q) VH: QVQLQQPGAELVKPGASVKLSCKASGYTFTSYYLYWMKQRPGQGLEWIGGVNPSNGGTQFSEKFKSKATLTVDKSSSTAYMQLSSLTSEDSAVYYCTRRDSNYDGGFDYWGQGTTLTVSS VL: DIVLTQSPTSLAVSLGQRATISCRASKSVSTSGFSYLHWYQQKPGQPPKLLIFLASNLESGVPARFSGSGSGTDFTLNIHPVEEEDAATYYCQHSWELPLTFGAGTKLELKR', 0.04);

Next binder, please.
For the binder Humanized 08A IgG4 S61N G56A (antibody, V domains shown, IgG4 S228P / kappa; also called 51AQK; 08A/HuPD1A-11 S61N VH G56A IgG4 S228P / Kappa) VH: EVQLVQSGAEVKKPGASVKVSCKASGYTFTSYYLYWVRQAPGQGLEWIGGVNPSNAGTNFNEKFKSRVTLTVDTSISTAYMELSRLRSDDTAVYYCTRRDSNYDGGFDYWGQGTTVTVSS VL: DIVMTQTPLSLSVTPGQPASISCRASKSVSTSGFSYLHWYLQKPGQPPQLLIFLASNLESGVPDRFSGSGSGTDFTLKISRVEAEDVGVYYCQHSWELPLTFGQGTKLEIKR , report KD (REF) / KD. 4.2
